Assignment: determine reported % Cell viability for the given compounds.
tested on: T. b. brucei GVR35-Luc2; assay: T. b. brucei GVR35-Luc2 time-to-kill assay (luciferin); assay type: cell-based; details: 6 h; average
State the answer as a number, implicitly in %.

Reported % Cell viability of CC1(C)OB(O)c2cc(NC(=O)c3ccc(F)cc3C(F)(F)F)ccc21 [SCYX-7158] : 31

Reported % Cell viability of CSc1ccc(OCc2ncc([N+](=O)[O-])n2C)cc1 [Fexinidazole, fexinidazole] : 61

Reported % Cell viability of Cc1ccc(C(=O)Nc2ccc(S(=O)(=O)O)c3cc(S(=O)(=O)O)cc(S(=O)(=O)O)c23)cc1NC(=O)c1cccc(NC(=O)Nc2cccc(C(=O)Nc3cc(C(=O)Nc4ccc(S(=O)(=O)O)c5cc(S(=O)(=O)O)cc(S(=O)(=O)O)c45)ccc3C)c2)c1 [Suramin, suramin] : 81

Reported % Cell viability of CNCCn1ccc2c(ccn2Cc2ccc(Cl)c(Cl)c2)c1=O [CTCB-435] : -0.684

* * *

system: T. b. brucei GVR35-Luc2; assay: T. b. brucei GVR35-Luc2 time-to-kill assay (luciferin); assay type: cell-based; conditions: Time to kill assay for GVR35 cells, 0.5 hour incubation
measuredEndpoint: Luminescence, Average
Enter the number alone.

Noted Luminescence, Average for `CC1(C)OB(O)c2cc(NC(=O)c3ccc(F)cc3C(F)(F)F)ccc21` , tested on T. b. brucei GVR35-Luc2: 8054

Noted Luminescence, Average for `CNCCn1ccc2c(ccn2Cc2ccc(Cl)c(Cl)c2)c1=O` , tested on T. b. brucei GVR35-Luc2: 71

Noted Luminescence, Average for `CN(C)CCn1ccc2c(ccn2Cc2ccc(Cl)c(Cl)c2)c1=O` , tested on T. b. brucei GVR35-Luc2: 184

Noted Luminescence, Average for `CSc1ccc(OCc2ncc([N+](=O)[O-])n2C)cc1` , tested on T. b. brucei GVR35-Luc2: 5213

Noted Luminescence, Average for `Cc1ccc(C(=O)Nc2ccc(S(=O)(=O)O)c3cc(S(=O)(=O)O)cc(S(=O)(=O)O)c23)cc1NC(=O)c1cccc(NC(=O)Nc2cccc(C(=O)Nc3cc(C(=O)Nc4ccc(S(=O)(=O)O)c5cc(S(=O)(=O)O)cc(S(=O)(=O)O)c45)ccc3C)c2)c1` , tested on T. b. brucei GVR35-Luc2: 8640

* * *

Assignment: determine reported Tmax for the given compounds.
assay: Pharmacokinetic studies in mice (IV and PO); format: in vivo, female CD-1 mice; conditions: female, CD-1, plasma; mouse, PO 10 mg kg^−1

Reported Tmax of CN(C)CCn1ccc2c(ccn2Cc2ccc(Cl)c(Br)c2)c1=O [CTCB-470] : 0.5 h

Reported Tmax of CN(C)CCn1ccc2c(ccn2Cc2ccc(F)c(Br)c2)c1=O [CTCB-508] : 2 h

* * *

experiment: Experimentally determined pKa and logP (Pharmorphix); type: physicochemical; conditions: read-out: Measured pKa
measuredEndpoint: pKa
Enter the number alone.

Reported pKa of `CN(C)CCn1ccc2c(ccn2Cc2ccc(Cl)c(Cl)c2)c1=O` : 8.09

* * *

Assay: Experimentally determined pKa and logP (Pharmorphix)
Assay type: physicochemical
Conditions: read-out: Measured logP
Description: pKa and […] values for selected CTCB compounds were determined experimentally by the company Pharmorphix (www.matthey.com) and calculated pKas were determined using ChemAxon.software (https://chemaxon.com).
measuredEndpoint: logP

Reported logP of `CN(C)CCn1ccc2c(ccn2Cc2ccc(Cl)c(Cl)c2)c1=O` : 3.29

Origin of values: paper PMC7887271
